Molecular target: T1, recombinant rat MASP1 active protease (amino acids 302-704, C-terminal His Tag) (rat, UniProt Q8CHN8 302-704)
T1 sequence: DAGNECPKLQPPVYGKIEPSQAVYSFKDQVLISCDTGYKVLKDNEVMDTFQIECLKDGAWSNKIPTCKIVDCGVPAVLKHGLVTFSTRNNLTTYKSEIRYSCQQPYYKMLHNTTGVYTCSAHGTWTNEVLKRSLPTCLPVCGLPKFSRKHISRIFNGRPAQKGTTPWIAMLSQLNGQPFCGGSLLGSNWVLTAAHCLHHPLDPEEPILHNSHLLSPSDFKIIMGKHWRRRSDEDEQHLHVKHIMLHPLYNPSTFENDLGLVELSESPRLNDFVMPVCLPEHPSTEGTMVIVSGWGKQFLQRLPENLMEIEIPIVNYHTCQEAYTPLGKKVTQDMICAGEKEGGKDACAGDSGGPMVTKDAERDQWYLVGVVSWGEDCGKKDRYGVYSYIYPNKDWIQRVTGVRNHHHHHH
Assay: cell-based or functional assay
Bridge positions count the residues as written; N and C are the ends. Square brackets hold non-standard residues; d marks the D form. Ends that are not written are not given here. Chg = N[C@H](C(=O)O)C1CCCCC1
quantityName: rat MASP1 IC50 (nM)
Form entry: value (nM) — number only.

Form field rat MASP1 IC50, entry AICSRSLPP[Chg]CI-NH2 (disulfide 3-11; N-terminus assumed; SMILES CC[C@H](C)[C@H](NC(=O)[C@@H]1CSSC[C@H](NC(=O)[C@@H](NC(=O)[C@H](C)N)[C@@H](C)CC)C(=O)N[C@@H](CO)C(=O)N[C@@H](CCCNC(=N)N)C(=O)N[C@@H](CO)C(=O)N[C@@H](CC(C)C)C(=O)N2CCC[C@H]2C(=O)N2CCC[C@H]2C(=O)N[C@@H](C2CCCCC2)C(=O)N1)C(N)=O) [Example 247: AIC+SRSLPP-(Chg)-C+I-NH2] : 700
